# Test system: Coxsackievirus
# PROTOCOL_SUMMARY: Inhibitory concentration of compound against formation of Coxsackievirus B2 plaque in plaque reduction assay
# Format: functional, organism-based
METRIC: pIC50
// returns pIC50 (minus log10 of molar concentration), number only

Request: Any idea what its pIC50 is? The compound is c1ccc(C(c2ccccc2)N2CCN(c3ncnc4c3cnn4-c3ccccc3)CC2)cc1
Result: 7.10

* * *

# Tested on: Coxsackievirus
# PROTOCOL_SUMMARY: Inhibitory concentration of compound against formation of Coxsackievirus A10 plaque in plaque reduction assay
# Assay type: functional, organism-based
METRIC: IC50 (µM)
Enter your answer as a number in µM; do not include the unit.

Request: Any idea what its IC50 is? The compound is c1ccc(C(c2ccccc2)N2CCN(c3ncnc4c3cnn4-c3ccccc3)CC2)cc1
Result: 0.39

Source of measurements: ChEMBL document CHEMBL1146731
